# credit: ChEMBL document CHEMBL3044730

Tested on: Coxsackievirus B4
Assay: Antiviral activity against Human coxsackievirus B4 infected human HeLa cells assessed as inhibition of virus-induced cytopathicity by microscopy
Type: functional, organism-based
Details: Enterovirus B
Recorded measurements of EC50, one per entry

Solved entries:
- molecule: "CCOc1cc(/C=N/NC(=O)c2cccnc2)ccc1O"
  EC50: "> 100 µg/mL"
- molecule: "O=C(N/N=C/c1cccc(Cl)c1)c1cccnc1"
  EC50: "> 100 µg/mL"
- molecule: "O=C(N/N=C/c1ccc([N+](=O)[O-])cc1)c1cccnc1"
  EC50: "> 0.16 µg/mL"
- molecule: "O=C(N/N=C/c1cccc(O)c1)c1cccnc1"
  EC50: "> 100 µg/mL"
- molecule: "O=C(N/N=C/c1ccccc1)c1cccnc1 [NICOTINIC ACID BENZYLIDENE-HYDRAZIDE]"
  EC50: "> 20 µg/mL"
- molecule: "O=C(N/N=C/c1ccc(Cl)cc1)c1cccnc1"
  EC50: "> 100 µg/mL"
- molecule: "O=C(N/N=C/c1ccccc1O)c1cccnc1"
  EC50: "> 0.8 µg/mL"
- molecule: "O=C(N/N=C/c1ccccc1[N+](=O)[O-])c1cccnc1"
  EC50: "> 100 µg/mL"

According to the records, this molecule `O=C(N/N=C/c1ccccc1Cl)c1cccnc1` displays EC50 of > 20 µg/mL
